Test system: KM12 colon
assay details: NCI tumour cell line growth inhibition, 48 h
Give measured TGI for each item. Keep answers brief.

Field TGI (entry `COC(=O)CCCC(=O)C1=Nc2ccccc2CN(c2ccc(Cl)cc2)N1` ) reads > 100 µM

The compound listed as `N#Cc1cc(-c2ccnc(Nc3ccc(NC(=O)CCl)cc3)n2)ccc1N1CCCC1` has a reported TGI of 10.2 µM

In plain terms, `C(=N\c1cc2cc(Sc3ccccc3)ccc2[nH]1)/c1ccccc1` has a documented TGI of > 12.5 µM

The recorded TGI for Cc1cn(CC2=NCC(O)CN2)c(=O)[nH]c1=O (stereo not given) is > 100 µM

TGI reading for `COC(=O)C1=C(C(=O)OC)SC2(S1)C1=C(CCC1)SC(C(=O)OC)=C2C(=O)OC` : 32.1 µM

Entry CC1(C)OC(C(C)(C)O)C(C(C)(C)O)O1 (stereo not given) — recorded TGI = > 100 µM

For `COc1cc(C(=O)Nc2cccc3ccccc23)c(Br)c(OC)c1OC` the compound record lists TGI as > 100 µM

The compound listed as CN(C)C1C(CO)OC(n2cnc3c(N)ncnc32)C1O (stereo not given) has a reported TGI of > 100 µM

Record summary for `COC1=CC(=O)c2c(c(-c3csc(C)n3)cn2C)C1=O` : reported TGI = > 100 µM

TGI for CC(C)(C)[Si](C)(C)OC1(CCc2ccccc2OS(=O)(=O)C(F)(F)F)CCCC=C1COCc1ccccc1 (stereo not given) is > 100 µM

For record O=c1[nH]cnc2c1ncn2C1CCC(CO)O1 (stereo not given) the listed TGI is > 1000 µM

# compound `COc1cc(C(=O)/C=C/c2c(-c3cccs3)nc3sccn23)cc(OC)c1OC` ; its TGI = 1.09 µM

Noted for `O=c1c(Nc2ccccc2)cn(CCOc2ccccc2)c(=O)n1CCOc1ccccc1` : its TGI reads > 100 µM

CCC(=O)OCC1OC(n2cnc3c(=S)nc(N)[nH]c32)C(OC(=O)CC)C1OC(=O)CC (stereo not given) yielded TGI of 44.4 µM

So for NC(=O)C1CCCNC1 (stereo not given) , the logged TGI turned out to be > 100 µM

Looking up `COc1ccc(/C=C/C(=O)c2c(O)c(C)c(O)c3c2OC2=CC(O)=C(C(C)=O)C(=O)[C@]23C)cc1` , I found its TGI recorded as 5.9 µM

Reported TGI ( `Cn1c(=O)c2[nH]c(CCCCc3nc4ccccc4[nH]3)nc2n(C)c1=O` ) = > 100 µM

Quick note, TGI for `COc1ccccc1/C=C/C(=O)c1ccc(Nc2nc(Nc3ccc(F)cc3)nc(Nc3ccc(F)cc3)n2)cc1` landed at > 100 µM

So for `CCn1cc(C(=O)O)c(=O)c2ccc(C)nc21` , the logged TGI turned out to be > 100 µM

Summary for this compound, `Oc1ccc(OCCOc2ccc(O)cc2)cc1` : TGI is > 100 µM

Summary for this compound, `CC(=O)Nc1cccc2[nH]c3ccccc3c(=O)c12` : TGI is 41.2 µM

For reference, reported TGI for `O=c1cn[nH]c2nc3ccccc3n12` stands at > 100 µM

Lab book: TGI of COC(=O)[C@]1(C)CC[C@]2(C)CC[C@]3(C)C4[C@H]5Oc6c(cc7c(c6C)CCC6[C@@]7(C)CC[C@@]7(C)C8[C@](C)(CCC[C@@]8(C)C(=O)OC)CC[C@]67C)O[C@H]5c5c(cc6c(c5C)O[C@@]5(C)C7=CC=C8[C@@](C)(CC[C@@]9(C)[C@@H]%10C[C@](C)(C(=O)OC)CC[C@]%10(C)CC[C@]89C)C7=CC(=O)[C@@]5(O)O6)[C@]4(C)CC[C@@]3(C)C2C1 (stereo not given in full) noted as > 12.5 µM

TGI reading for `O=C1NC(=O)/C(=C/c2ccc3ncccc3c2)S1` : > 25 µM

Item: N#CC1=C(N)OC2=C(CCCc3ccc([N+](=O)[O-])cc32)C1c1ccccc1 (stereo not given) | TGI: 14.8 µM

Noted for `Nc1cnc(Nc2cccc3ccccc23)o1` : its TGI reads > 10 µM

For COc1cc2c(c(OC)c1OC)CCNC2C1=C(O)COC1=O (stereo not given) the compound record lists TGI as > 100 µM

For this compound ( `COc1cc(/C=C/c2cc(/C=C/c3ccc(O)c(OC)c3)n(C(=O)Cc3ccccc3)n2)ccc1O` ), measured TGI is > 100 µM

// field: TGI; key: `Cc1cccc(NS(=O)(=O)c2ccc3c(c2)OCCOCCOCCOCCO3)c1` ; value = > 100 µM

Summary for this compound, CC(C#N)NCc1ccc(C(C)NC(C)C#N)cc1 (stereo not given) : TGI is > 100 µM

Reported TGI for COc1cc(C2CC(c3ccc(SC)cc3)=NN2C(C)=O)cc(OC)c1OC (stereo not given) was 44.9 µM

Lab note: measured TGI of `COC(=O)[C@@H]1CCc2nc3ccccc3c(=O)n21` was > 100 µM

Entry CCOC(=O)NC(=O)c1cn(CCN2CCN(C(=O)CCCCCCCCCCNc3ncnc4c3ncn4C3OC(CO)C(O)C3O)CC2)c(=O)[nH]c1=O (stereo not given) , TGI reported as > 100 µM

TGI in this record for `CCCCc1ccc(NS(=O)(=O)c2cc3c4c(c2)CCN4C(=O)CC3)cc1` : > 100 µM

Entry under test: COc1cc(/C=C2\CCC(C)(CN(C)C)C2=O)cc(OC)c1OC (stereo not given) . Its TGI was > 100 µM

What the record says about O=C1c2c(O)ccc(O)c2C(=O)c2c(NCCNC(=O)C(O)C(O)C(O)C(O)CO)ccc(NCCNC(=O)C(O)C(O)C(O)C(O)CO)c21 (stereo not given) : TGI is 0.534 µM

Recorded TGI (compound `CCOc1ccccc1/C=C(/C#N)C(N)=O` ): > 100 µM

Lab note: `COc1ccc(Cc2nccc3cc(OC)c(OC)cc23)cc1` gave TGI of > 100 µM

Note to self: TGI recorded for `C[Si](C)(C)CNC(=O)OCc1ccccc1` was > 100 µM

`CCOC(=O)c1c(Sc2ccc([N+](=O)[O-])cc2[N+](=O)[O-])nc2c3ccccc3ccn12` has a reported TGI of > 100 µM

----------
Tested on: LXFL 529 NSCLC
assay details: NCI tumour cell line growth inhibition, 48 h
readout label: TGI

Value of measured TGI for the entry `[O-][n+]1c(-c2ccccc2)oc2ccccc21` : > 94.4 µM

`CN(C)CCNC(=O)c1cccc2nc3c(ccc4ccccc43)nc12` yielded TGI of 14 µM

# molecule `C1C[OH+]CCNCC[OH+]CC[OH+]CCN1.O.[Cl-].[Pt+4]` ; its TGI = > 100 µM

The value of TGI measured for the molecule Cn1c(C2CCCc3c2c2ccccc2n3C)cc2ccccc21 (configuration not stated) turned out to be > 318 µM

TGI measured on `Cc1cc(C)nc(NS(=O)(=O)c2ccc(NC(=O)c3cccc4c(Nc5ccc(S(=O)(=O)N=C(N)N)cc5)c5ccccc5nc34)cc2)n1` = 59.1 µM

Documented TGI of COc1cccc2c1C(=O)c1c(O)c3c(c(O)c1C2=O)C[C@@](O)(C(=O)CO)C[C@@H]3OC1CC(N(C)C)C(O)C(C)O1 (some centres not stated) : 1.6 µM

Per the records, this molecule ( CCOC(=O)NC(=O)c1cn(CCN2CCN(C(=O)CCCCCCCCCCNc3ncnc4c3ncn4C3OC(CO)C(O)C3O)CC2)c(=O)[nH]c1=O (configuration not stated) ) has TGI equal to > 100 µM

response.value for `Cc1cc2c(cc1O)[nH]c1cc3c(cc12)C=CC(C)(C)O3` (field: TGI) = > 25 µM

response.value for `O=C(CCC(=O)Nc1ccc(Cl)c(Cl)c1)CC(=O)c1ccc(Cl)cc1` (field: TGI) = > 100 µM

Briefly, TGI measured for `CCCCCCCCCCCCC(=O)CCCCC(=O)O` : 35.3 µM

For this molecule ( CC(C)(C)OC(=O)C1=C(O)C(C(=O)OC(C)(C)C)C23CCCCC12C(C(=O)OC(C)(C)C)C(O)=C3C(=O)OC(C)(C)C (configuration not stated) ), measured TGI is > 100 µM

Value of TGI reported for the molecule COc1cc2c(c(OC)c1OC)CCNC2C1=C(O)COC1=O (configuration not stated) is > 100 µM

----------
Test system: HOP-18 NSCLC
assay details: NCI tumour cell line growth inhibition, 48 h
readout label: TGI

Noted for `Cc1ccc(N=Nc2c(C)nn(-c3ccccc3)c2C)c(Br)c1` : its TGI reads > 100 µM

CCOC(=O)[C@]12C3C=CC(C3)C1C(=O)C1OC12 (some centres undefined) yielded TGI of > 100 µM

So, `CC[C@H]1CC(=O)c2c(cc3c(c2O)C(=O)c2ccccc2C3=O)[C@@]1(C#N)C(=O)OC(C)(C)C` ? Its TGI was 14.3 µM

Kindly note the recorded TGI for `Cc1cccc(C)c1NC(=O)CCC(=O)NNc1nnc(C)n1N` , which is > 100 µM
